- TARGET_ENTITY: T1, Apelin Receptor (APJ) stably overexpressed in CHO-K1 AGTRL1 Gi cells (human, UniProt P35414 1-380)
- T1 sequence (looked up): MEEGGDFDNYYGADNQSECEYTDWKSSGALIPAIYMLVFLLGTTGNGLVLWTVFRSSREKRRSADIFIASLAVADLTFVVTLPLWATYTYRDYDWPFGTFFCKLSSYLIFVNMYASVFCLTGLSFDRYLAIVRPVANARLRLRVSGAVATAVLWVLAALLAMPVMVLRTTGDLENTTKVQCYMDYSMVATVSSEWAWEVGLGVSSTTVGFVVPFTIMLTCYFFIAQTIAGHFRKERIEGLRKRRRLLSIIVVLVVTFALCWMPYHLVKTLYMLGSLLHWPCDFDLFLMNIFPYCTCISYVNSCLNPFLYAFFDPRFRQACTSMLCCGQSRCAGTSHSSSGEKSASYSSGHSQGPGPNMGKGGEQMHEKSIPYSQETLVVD
- ASSAY_COMMENT: cell-based or functional assay
Non-standard residues stand in square brackets, D forms with d. Primed or numbered codes have the meaning given here. No end group written: not given here. PEG12(3) = not defined here
RECORDED_METRIC: cAMP levels, Percent of Pyr-Apelin-13 Control Activity (10 µM peptide, 10 µM forskolin)

BINDER	RESULT
RRMMGMVEQCLCG[dA] (cysteine pairing not given here) [SEQ ID NO 12]	24 % of Pyr-Apelin-13 control
RRMMGMVAQCLCG[dA] (cysteine pairing not given here) [SEQ ID NO 11]	49 % of Pyr-Apelin-13 control
RRMMGMVYQCLCG[dA] (cysteine pairing not given here) [SEQ ID NO 10]	70 % of Pyr-Apelin-13 control
RRMMGMVFQCLCG[dA]K(PEG12(3)) (cysteine pairing not given here) [SEQ ID NO 21]	34 % of Pyr-Apelin-13 control
MMGMVFQS [SEQ ID NO 47]	-6 % of Pyr-Apelin-13 control
RMMGMVF [SEQ ID NO 50]	8 % of Pyr-Apelin-13 control
